target: Fatty-acid amide hydrolase 1 (Rattus norvegicus); experiment: Inhibition of recombinant rat FAAH expressed in Escherichia coli assessed as breakdown of [14C]-oleamide by Dixon plot analysis
Sequence (P97612 whole entry): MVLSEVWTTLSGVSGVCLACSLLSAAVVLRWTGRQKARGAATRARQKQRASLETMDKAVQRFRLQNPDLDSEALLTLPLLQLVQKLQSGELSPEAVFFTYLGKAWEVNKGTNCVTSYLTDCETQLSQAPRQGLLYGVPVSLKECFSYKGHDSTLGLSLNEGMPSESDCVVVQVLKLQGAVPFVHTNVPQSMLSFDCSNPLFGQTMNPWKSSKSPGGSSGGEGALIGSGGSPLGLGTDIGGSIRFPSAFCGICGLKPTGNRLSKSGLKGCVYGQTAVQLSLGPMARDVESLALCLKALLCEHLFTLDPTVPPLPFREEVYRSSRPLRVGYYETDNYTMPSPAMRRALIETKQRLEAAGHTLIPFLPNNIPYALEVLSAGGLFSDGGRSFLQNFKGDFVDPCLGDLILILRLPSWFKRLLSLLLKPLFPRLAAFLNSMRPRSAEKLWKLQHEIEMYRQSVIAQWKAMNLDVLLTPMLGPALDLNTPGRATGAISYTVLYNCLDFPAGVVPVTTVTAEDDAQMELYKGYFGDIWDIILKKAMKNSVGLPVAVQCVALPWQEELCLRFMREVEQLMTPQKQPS
Property: pKi
# reply with the number alone; pKi is -log10 of concentration in mol/L

Q) Fill in reported pKi for this entry: CSC(=O)c1ccc(-c2cnc(C(=O)CCCCCCc3ccccc3)o2)nc1
A) 8.70

// next item, pKi requested
Q) Fill in reported pKi for this entry: O=C(CCCCCCc1ccccc1)c1ncc(CCCCCBr)o1
A) 8.21
